Listed compounds paired with reported IC50
measured_on: Human complement C1s enzyme (Homo sapiens)
assay_method_text: Human C1s enzyme assay
Type: biochemical
measurement_conditions: human complement C1s enzyme 1.16 nM, substrate Z-L-Lys-SBzl 100 μM, 5 min preincubation; read-out: IC50 (Stars), C1s Inhibiting Activity

>  <compound>
COC[C@@]1(F)C[C@@H](C(=O)N[C@H](C)c2cc3cnccc3[nH]2)N(C(=O)CNC(=O)c2ccc(Oc3ccccc3)cc2)C1 [Compound 40]

>  <IC50>
0.1 to 1 µM

$$$$
>  <compound>
C[C@@H](NC(=O)C1C[C@H](COCCCCCC(=O)O)CN1C(=O)CNC(=O)c1ccc2c(c1)Oc1ccccc1S2)c1cc2cnccc2[nH]1 (stereo partly shown) [Compound 204]

>  <IC50>
< 0.1 µM

$$$$
>  <compound>
C[C@@H](NC(=O)[C@@H]1C[C@]2(C)C[C@@H]2N1C(=O)CNC(=O)c1ccc2c(c1)Oc1ccccc1S2)c1cc2cnccc2[nH]1 [Compound 130]

>  <IC50>
< 0.1 µM

$$$$
>  <compound>
CN1CCc2sc(CNC(=O)[C@@H]3C[C@@H](OC(F)F)CN3C(=O)CNC(=O)c3ccc4c(c3)Oc3ccccc3S4)cc2C1 [Compound 347]

>  <IC50>
> 1 µM

$$$$
>  <compound>
CC1(O)c2ccccc2-c2cc(C(=O)NCC(=O)N3C[C@H](OC(F)F)C[C@H]3C(=O)NCc3cc4cnccc4[nH]3)ccc21 (stereo partly shown) [Compound 314]

>  <IC50>
< 0.1 µM

$$$$
>  <compound>
C[C@@H](NC(=O)[C@@H]1C[C@@H](OC(F)F)CN1C(=O)CNC(=O)c1ccc2c(c1)-c1ccccc1C2(F)F)c1cc2cnccc2s1 [Compound 207]

>  <IC50>
> 1 µM

$$$$
>  <compound>
C[C@@H](NC(=O)[C@@H]1CC2(CN1C(=O)CNC(=O)c1ccc(-c3ccccc3)cc1)OCCO2)c1cc2cnccc2[nH]1 [Compound 79]

>  <IC50>
0.1 to 1 µM

$$$$
>  <compound>
CC1c2ccccc2-c2cc(C(=O)NCC(=O)N3C[C@H](OC(F)F)C[C@H]3C(=O)NCc3cc4cnccc4[nH]3)ccc21 (stereo partly shown) [Compound 302]

>  <IC50>
< 0.1 µM

$$$$
>  <compound>
C[C@@]12C[C@@H]1N(C(=O)CNC(=O)c1ccc3c(c1)Oc1ccccc1S3)[C@H](C(=O)NCc1ccc3c(c1)COB3O)C2 [Compound 279]

>  <IC50>
> 1 µM

$$$$
>  <compound>
C[C@@]12C[C@@H]1N(C(=O)CNC(=O)c1cccc(Oc3ccccc3)c1)[C@H](C(=O)NCc1cc3cnccn3c1)C2 [Compound 277]

>  <IC50>
< 0.1 µM

$$$$
>  <compound>
O=C(NCC(=O)N1C[C@H](OC(F)F)C[C@H]1C(=O)NCc1ccc2c(n1)NCC2)c1ccc2c(c1)Oc1ccccc1S2 [Compound 265]

>  <IC50>
> 1 µM

$$$$
>  <compound>
C[C@@H](NC(=O)[C@@H]1C[C@](F)(CF)CN1C(=O)CNC(=O)c1ccc(Oc2ccc(F)cc2)cc1)c1cc2cnccc2[nH]1 [Compound 89]

>  <IC50>
> 1 µM

$$$$
>  <compound>
C[C@@H](NC(=O)[C@@H]1CC2(CN1C(=O)CN1Cc3cc(-c4ccc(F)cc4)ccc3C1=O)OCCO2)c1cc2cnccc2[nH]1 [Compound 123]

>  <IC50>
0.1 to 1 µM

$$$$
>  <compound>
O=C(NCC(=O)N1C[C@H](OC(F)F)C[C@H]1C(=O)NCc1ccc2cc[nH]c2n1)c1ccc2c(c1)Oc1ccccc1S2 [Compound 229]

>  <IC50>
> 1 µM

$$$$
>  <compound>
Nc1noc2cc(CNC(=O)[C@@H]3C[C@@H](OC(F)F)CN3C(=O)CNC(=O)c3ccc4c(c3)Oc3ccccc3S4)ccc12 [Compound 232]

>  <IC50>
> 1 µM

$$$$
>  <compound>
CO[C@@H]1CCN(C(=O)CNC(=O)c2ccc3c(c2)Oc2ccccc2S3)[C@@H]1C(=O)NCc1cc2cnccc2[nH]1 [Compound 285]

>  <IC50>
> 1 µM

$$$$
>  <compound>
O=C(NCC(=O)N1CC2(C[C@H]1C(=O)NCc1nc3cnccc3s1)OCCO2)c1ccc2c(c1)Oc1ccccc1S2 [Compound 41]

>  <IC50>
> 1 µM

$$$$
>  <compound>
C[C@@H](NC(=O)[C@@H]1C[C@]2(C)C[C@@H]2N1C(=O)CNC(=O)c1ccc2oc3ccccc3c2c1)c1cc2cnccc2[nH]1 [Compound 200]

>  <IC50>
< 0.1 µM

$$$$
>  <compound>
Cc1cc(F)ccc1Oc1ccc(C(=O)NCC(=O)N2C[C@H](OC(F)F)C[C@H]2C(=O)NCc2cc3cnccc3[nH]2)cc1 [Compound 308]

>  <IC50>
< 0.1 µM

$$$$
>  <compound>
O=C(NCC(=O)N1CC2(C[C@H]1C(=O)NCc1cc3cncc(Cl)c3[nH]1)OCCO2)c1ccc2c(c1)Oc1ccccc1S2 [Compound 53]

>  <IC50>
> 1 µM

$$$$
>  <compound>
Cc1ccc(Cc2cccc(C(=O)NCC(=O)N3C[C@H](OC(F)F)C[C@H]3C(=O)NCc3cc4cnccc4[nH]3)c2)c(F)c1 [Compound 305]

>  <IC50>
< 0.1 µM

$$$$
>  <compound>
O=C(NCC(=O)N1C[C@H](OC(F)F)C[C@H]1C(=O)NCc1cnc2cn[nH]c2c1)c1ccc2c(c1)Oc1ccccc1S2 [Compound 262]

>  <IC50>
> 1 µM

$$$$
>  <compound>
C[C@@]12C[C@@H]1N(C(=O)CNC(=O)c1cccc(Oc3ccc(F)cc3)c1)[C@H](C(=O)NCc1cc3cnccc3[nH]1)C2 [Compound 153]

>  <IC50>
< 0.1 µM

$$$$
>  <compound>
C[C@@]12C[C@@H]1N(C(=O)CNC(=O)c1ccc3c(c1)Oc1ccccc1S3)[C@H](C(=O)NCc1cc3cc(B(O)O)ccc3[nH]1)C2 [Compound 291]

>  <IC50>
> 1 µM

$$$$
>  <compound>
C[C@@H](NC(=O)[C@@H]1CC2(CN1C(=O)CNC(=O)c1ccc3c(c1)-c1ccccc1C3(F)F)OCCO2)c1cc2cnccc2[nH]1 [Compound 38]

>  <IC50>
< 0.1 µM

$$$$

----------
measured_on: Human complement C1s enzyme (Homo sapiens)
assay_method_text: Human C1s enzyme assay
Type: biochemical
measurement_conditions: human complement C1s enzyme 1.16 nM, substrate Z-L-Lys-SBzl 100 μM, 5 min preincubation; read-out: IC50 (Stars), C1s Inhibiting Activity
measured_metric: IC50

>  <cpd_smiles>
C[C@@H](NC(=O)[C@@H]1C[C@@H](S(C)(=O)=O)CN1C(=O)CNC(=O)c1ccc(-c2ccc(F)cc2F)cc1)c1cc2cnccc2[nH]1

>  <recorded_result>
> 1000 nM

$$$$
>  <cpd_smiles>
O=C(NCC(=O)N1C[C@H](OC(F)F)C[C@H]1C(=O)NCc1ccc2c(c1)CNCC2)c1ccc2c(c1)Oc1ccccc1S2

>  <recorded_result>
> 1000 nM

$$$$
>  <cpd_smiles>
C[C@@]12C[C@@H]1N(C(=O)CNC(=O)c1ccc(Oc3ccccc3)cn1)[C@H](C(=O)NCc1cc3cnccc3[nH]1)C2

>  <recorded_result>
100 to 1000 nM

$$$$
>  <cpd_smiles>
C[C@@]12C[C@@H]1N(C(=O)CNC(=O)CCCOc1ccccc1)[C@H](C(=O)NCc1cnc3c(CN)cccn13)C2

>  <recorded_result>
> 1000 nM

$$$$
>  <cpd_smiles>
Cc1ccc(Oc2cccc(C(=O)NCC(=O)N3C[C@H](OC(F)F)C[C@H]3C(=O)NCc3cc4c(s3)CNCC4)c2)c(F)c1

>  <recorded_result>
< 100 nM

$$$$
>  <cpd_smiles>
C[C@@H](NC(=O)[C@@H]1C[C@]2(C)C[C@@H]2N1C(=O)CNC(=O)c1ccc(Oc2ccccc2)cc1)c1cc(B(O)O)cs1

>  <recorded_result>
> 1000 nM

$$$$

----------
measured_on: Human complement C1s enzyme (Homo sapiens, UniProt P09871)
Sequence (P09871 438-688 limits assumed): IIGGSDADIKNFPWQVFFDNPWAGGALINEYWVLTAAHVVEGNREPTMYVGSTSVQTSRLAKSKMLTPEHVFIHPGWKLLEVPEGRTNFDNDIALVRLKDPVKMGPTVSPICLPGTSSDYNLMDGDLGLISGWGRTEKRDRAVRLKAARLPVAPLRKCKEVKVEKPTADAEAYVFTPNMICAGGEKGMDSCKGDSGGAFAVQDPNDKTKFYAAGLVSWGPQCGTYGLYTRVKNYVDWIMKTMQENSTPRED
Sequence (P09871 16-437 partner limits assumed): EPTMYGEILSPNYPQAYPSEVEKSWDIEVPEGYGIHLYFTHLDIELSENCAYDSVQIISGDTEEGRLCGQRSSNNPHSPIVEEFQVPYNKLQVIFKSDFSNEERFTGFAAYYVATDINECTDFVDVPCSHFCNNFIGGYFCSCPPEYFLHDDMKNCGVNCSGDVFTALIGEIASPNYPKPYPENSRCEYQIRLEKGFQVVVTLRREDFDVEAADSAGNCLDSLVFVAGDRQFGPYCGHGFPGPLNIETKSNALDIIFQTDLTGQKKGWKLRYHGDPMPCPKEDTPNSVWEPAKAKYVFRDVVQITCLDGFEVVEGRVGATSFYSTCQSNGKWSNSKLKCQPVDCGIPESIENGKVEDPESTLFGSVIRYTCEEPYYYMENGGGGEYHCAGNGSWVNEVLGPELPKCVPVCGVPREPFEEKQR
assay_method_text: Human C1s enzyme assay
Format: biochemical
measurement_conditions: human complement C1s enzyme 1.16 nM, substrate Z-L-Lys-SBzl 100 μM, 5 min preincubation; read-out: IC50 (Stars), C1s Inhibiting Activity
pIC50: −log10 of the molar value.

>  <compound>
C[C@@H](NC(=O)[C@@H]1C[C@@H](c2ncco2)CN1C(=O)CNC(=O)c1ccc2c(c1)Oc1ccccc1S2)c1cc2cnccc2[nH]1 [Compound 177]

>  <pIC50>
> 7.00

$$$$
>  <compound>
O=C(NCC(=O)N1C[C@H](OC(F)F)C[C@H]1C(=O)NCc1cc2c(s1)CCNC2)c1ccc2c(c1)Oc1ccccc1S2 [Compound 313]

>  <pIC50>
> 7.00

$$$$
>  <compound>
C[C@@]12C[C@@H]1N(C(=O)CNC(=O)CCCOc1ccccc1)[C@H](C(=O)N[C@@H]1CCn3c(CN)ccc31)C2 [Compound 78]

>  <pIC50>
6.00 to 7.00

$$$$
>  <compound>
C[C@@H](NC(=O)[C@@H]1C[C@](F)(CF)CN1C(=O)CNC(=O)c1ccc2c(c1)Oc1ccccc1S2)c1cc2cnccc2[nH]1 [Compound 164]

>  <pIC50>
> 7.00

$$$$
>  <compound>
C[C@@]12C[C@@H]1N(C(=O)CN1Cc3ccc(Oc4ccccc4)cc3C1=O)[C@H](C(=O)NCc1cc3cnccc3[nH]1)C2 [Compound 156]

>  <pIC50>
6.00 to 7.00

$$$$
>  <compound>
O=C(NCC(=O)N1CC2(C[C@H]1C(=O)NCc1cc3cnccc3[nH]1)OCCO2)c1ccc2c(c1)-c1ccccc1C2(F)F [Compound 2]

>  <pIC50>
> 7.00

$$$$

The values you see were collected from patent US20260062443A1.
